IC50 values, listed per item
# System: K562
# protocol.text: Anticancer activity against human K562 cells after 48 hrs by MTT assay
# Type: functional, cell-based
# condition.parameters: K562, 48 h
Write your answer as a measured quantity: the number, then the unit.

{"columns": ["compound", "IC50"],
 "data": [
  ["COc1cccc2c1C(=O)c1c(O)c3c(c(O)c1C2=O)C[C@@](O)(C(=O)CO)C[C@@H]3O[C@H]1C[C@H](N)[C@H](O)[C@H](C)O1 [DOXORUBICIN]", "0.45 µM"]
]}

Look up IC50 for this compound: O=c1[nH]cc(F)c(=O)[nH]1 [FLUOROURACIL]
31.6 µM

Where do these numbers come from? They come from ChEMBL document CHEMBL3351585.
